// provenance: patent US12564560B1

Listing: EC50 of selected molecules
Biological target: 5-HT2A (Homo sapiens, UniProt P28223)
Construct: expressed in transfected cells; host or cells: HEK293T
Sequence (P28223 whole entry): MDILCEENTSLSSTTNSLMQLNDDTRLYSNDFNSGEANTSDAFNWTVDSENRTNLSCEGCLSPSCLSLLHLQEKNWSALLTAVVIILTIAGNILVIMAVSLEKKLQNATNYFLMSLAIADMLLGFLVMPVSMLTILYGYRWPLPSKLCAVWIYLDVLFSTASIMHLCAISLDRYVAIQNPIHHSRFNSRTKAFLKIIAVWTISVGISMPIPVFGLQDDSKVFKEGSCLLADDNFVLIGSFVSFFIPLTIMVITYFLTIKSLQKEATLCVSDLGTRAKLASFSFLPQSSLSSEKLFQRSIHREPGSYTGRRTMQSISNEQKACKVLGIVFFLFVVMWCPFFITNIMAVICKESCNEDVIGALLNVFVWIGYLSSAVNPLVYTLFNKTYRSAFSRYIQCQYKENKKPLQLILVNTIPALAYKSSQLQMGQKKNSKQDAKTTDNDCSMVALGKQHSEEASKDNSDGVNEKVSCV
Assay: 5-HT2 receptor-mediated Gq activation via Gq/γ1 dissociation BRET
Format: cell-based
Conditions: Gq dissociation BRET, HEK293T cells
Text: […]

These solved cases illustrate the format of a correct answer.
> print(dat)
                                   molecule                           assay.system          result
1  CNCC1CC1c1cc(F)ccc1SC (stereo not drawn)  5-HT2A (Homo sapiens, UniProt P28223)  100 to 1000 nM
2  CSc1ccc(F)cc1C1CC1CN(C)C (stereo not drawn)  5-HT2A (Homo sapiens, UniProt P28223)       > 1000 nM

-- ask For the molecule `CNC[C@H]1C[C@@H]1c1cc(F)ccc1OC` , report EC50.
-- reply 100 to 1000 nM

----------
Target: 5-HT2B (Homo sapiens)
Sequence (P41595 whole entry): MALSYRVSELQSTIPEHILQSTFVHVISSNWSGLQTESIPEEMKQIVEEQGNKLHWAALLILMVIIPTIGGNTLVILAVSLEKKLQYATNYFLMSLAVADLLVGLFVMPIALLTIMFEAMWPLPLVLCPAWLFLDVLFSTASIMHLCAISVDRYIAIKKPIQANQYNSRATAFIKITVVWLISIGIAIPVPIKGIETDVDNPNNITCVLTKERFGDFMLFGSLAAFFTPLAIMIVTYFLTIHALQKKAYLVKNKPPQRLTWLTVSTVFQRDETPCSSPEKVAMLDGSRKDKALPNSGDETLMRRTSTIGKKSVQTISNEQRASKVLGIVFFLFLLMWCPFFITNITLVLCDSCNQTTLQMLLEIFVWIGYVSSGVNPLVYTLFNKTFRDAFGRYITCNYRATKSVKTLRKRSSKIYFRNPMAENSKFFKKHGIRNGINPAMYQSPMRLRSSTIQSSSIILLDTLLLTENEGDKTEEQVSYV
Test: 5-HT2 receptor-mediated Gq activation via Gq/γ1 dissociation BRET
Details: HEK293T cells
REPORTED ENDPOINT: EC50

-- ask For the compound `CNC[C@H]1C[C@@H]1c1cc(F)ccc1OC` , report EC50.
-- reply 10 to 100 nM
